meta.source: paper PMC9352680

targetDesc: T1, PUF4 RNA-binding domain (Saccharomyces cerevisiae, UniProt P25339 537-888)
T1 sequence: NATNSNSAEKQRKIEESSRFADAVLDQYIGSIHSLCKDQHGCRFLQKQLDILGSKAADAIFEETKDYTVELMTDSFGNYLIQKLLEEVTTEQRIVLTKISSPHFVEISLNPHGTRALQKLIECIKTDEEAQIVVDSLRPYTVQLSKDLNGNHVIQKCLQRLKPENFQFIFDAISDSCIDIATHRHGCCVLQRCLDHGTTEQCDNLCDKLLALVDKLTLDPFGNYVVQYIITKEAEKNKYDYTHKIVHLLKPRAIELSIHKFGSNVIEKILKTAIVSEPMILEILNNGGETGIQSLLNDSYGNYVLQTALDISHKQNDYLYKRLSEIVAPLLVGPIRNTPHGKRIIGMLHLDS
protocolDetails: Mg; RNA-MaP; 20 mM Na-HEPES pH 7.4, 30 mM KOAc, 0.75 mM MgCl2, 0.1% Tween-20, 5% glycerol, 0.1 mg/mL BSA, 2 mM DTT; 25 C; 0.0125-409.6 nM protein
experimentalSetup: tags: N-His6-TEV cleaved; C-SNAP kept, Cy3B-labelled; label: tethered on chip by stalled RNA polymerase
Recorded pKd, one value per entry.
Units for pKd: none; it is -log10 of a concentration expressed in mol/L.

Give recorded pKd. UCUCUUUGUAAUACCUUCUCUU (ssRNA) [Ic_S1_P5E.1_K5.1_C5.1_H5.1_A5.1_[T5A]_F5.1_[T8C]_[T9C]_[A10T]_T5.1] 6.16

Give recorded pKd. UCUCUUUGUACGUCAUCUCUU (ssRNA) [Ic_S1_P4E.1_K4.1_C4.1_H4.1_A4.1_[T5C]_[A6G]_F4.1_[T8C]_T4.1] 6.93

Give recorded pKd. Ic_S2_P3E.1_K3.1_C3.1_H3.1_A3.1_[T5A]_F3.1_[T7A]_[A8C]_T3.1 (ssRNA) RNA: UUUGAUUAAUAUGAUAUCGUUCUUUCUUGUAAAACUUCUUUCUCGAUAUCAUAUUAAUCUUU 6.21

Give recorded pKd. UCUCUUUGUAUAUUCUCAUCUCUU (ssRNA) [Ie_S1_P4E.1_K4.1_C4.1_H4.1_A4.1_F4.1_[+8CTC]_T4.1] 7.97
